- testDetails: Phase I study CXR1002-001: plasma pharmacokinetics (LC-MS/MS)
- Assay type: in vivo, human
- appliedConditions: human, plasma, oral, 950 mg, Patient 031, 950 mg, person, plasma, 696 hr (Day 30); read-out: Concentration
- Text: PK samples, PD (fasting) samples, blood glucose, and blood triglyceride samples, were taken over a 6-week period. Dose limiting toxicity (DLT) will be based on the toxicity assessments over the first 3-week period of the repeat dosing schedule. […]
quantity: concentration at 696 h

> print(dat)
                                   compound  observed
1  O=C(O)C(F)(F)C(F)(F)C(F)(F)C(F)(F)C(F)(F)C(F)(F)C(F)(F)F [CXR1002]   1030 µM

* * *

- testDetails: Phase I study CXR1002-001: plasma pharmacokinetics (LC-MS/MS)
- Type: in vivo, human
- appliedConditions: human, plasma, oral, 950 mg, Patient 029, 950 mg, person, plasma, 696 hr (Day 30); read-out: Concentration
quantity: concentration at 696 h (µM)

> print(dat)
                                   molecule  unittag  observed
1  O=C(O)C(F)(F)C(F)(F)C(F)(F)C(F)(F)C(F)(F)C(F)(F)C(F)(F)F [CXR1002]       µM       949

* * *

- testDetails: Phase I study CXR1002-001: plasma pharmacokinetics (LC-MS/MS)
- Type: in vivo, human
- appliedConditions: human, plasma, oral, 50 mg, Patient 001 Dose 50 mg; 2 hr; read-out: Concentration
- Text: PK samples, PD (fasting) samples, blood glucose, and blood triglyceride samples, were taken over a 6-week period. Dose limiting toxicity (DLT) will be based on the toxicity assessments over the first 3-week period of the repeat dosing schedule. […]
quantity: concentration at 2 h (µM)

> print(dat)
                    compoundstructurestring              quantity  observed
1  O=C(O)C(F)(F)C(F)(F)C(F)(F)C(F)(F)C(F)(F)C(F)(F)C(F)(F)F  concentration at 2 h      22.5

* * *

- testDetails: Phase I study CXR1002-001: plasma pharmacokinetics (LC-MS/MS)
- Type: in vivo, human
- appliedConditions: human, plasma, oral, 300 mg, Patient 012 Dose 300 mg; 504 hr (Day 22); read-out: Concentration
quantity: concentration at 504 h (µM)

> print(dat)
                    compoundstructurestring                quantity  observed
1  O=C(O)C(F)(F)C(F)(F)C(F)(F)C(F)(F)C(F)(F)C(F)(F)C(F)(F)F  concentration at 504 h       181

* * *

- testDetails: Phase I study CXR1002-001: plasma pharmacokinetics (LC-MS/MS)
- Type: in vivo, human
- appliedConditions: human, plasma, oral, 1200 mg, Patient 034, 1200 mg, person, plasma, 171 hr; read-out: Concentration
- Excerpt: PK samples, PD (fasting) samples, blood glucose, and blood triglyceride samples, were taken over a 6-week period. Dose limiting toxicity (DLT) will be based on the toxicity assessments over the first 3-week period of the repeat dosing schedule. […]
quantity: concentration at 171 hr (µM)

> print(dat)
                    compoundstructurestring                 quantity  unittag  observed
1  O=C(O)C(F)(F)C(F)(F)C(F)(F)C(F)(F)C(F)(F)C(F)(F)C(F)(F)F  concentration at 171 hr       µM       771

* * *

- testDetails: Phase I study CXR1002-001: plasma pharmacokinetics (LC-MS/MS)
- Type: in vivo, human
- appliedConditions: human, plasma, oral, 200 mg, Patient 010 Dose 200 mg; 340 hr; read-out: Concentration
- Excerpt: PK samples, PD (fasting) samples, blood glucose, and blood triglyceride samples, were taken over a 6-week period. Dose limiting toxicity (DLT) will be based on the toxicity assessments over the first 3-week period of the repeat dosing schedule. […]
quantity: concentration at 340 h (µM)

> print(dat)
                    compoundstructurestring  observed
1  O=C(O)C(F)(F)C(F)(F)C(F)(F)C(F)(F)C(F)(F)C(F)(F)C(F)(F)F      66.7

* * *

- testDetails: Phase I study CXR1002-001: plasma pharmacokinetics (LC-MS/MS)
- Assay type: in vivo, human
- appliedConditions: human, plasma, po, 1200 mg, Patient 037, 1200 mg weekly oral dose, Time 168 hr (Day 8); read-out: Concentration (plasma level)
quantity: concentration at 168 h

> print(dat)
                                   molecule                quantity  observed
1  O=C(O)C(F)(F)C(F)(F)C(F)(F)C(F)(F)C(F)(F)C(F)(F)C(F)(F)F [CXR1002]  concentration at 168 h    422 µM

* * *

- testDetails: Phase I study CXR1002-001: plasma pharmacokinetics (LC-MS/MS)
- Assay type: in vivo, human
- appliedConditions: human, plasma, oral, 200 mg, Patient 010 Dose 200 mg; 336 hr (Day 15); read-out: Concentration
quantity: concentration at 336 h

> print(dat)
                    compoundstructurestring  observed
1  O=C(O)C(F)(F)C(F)(F)C(F)(F)C(F)(F)C(F)(F)C(F)(F)C(F)(F)F   98.8 µM

* * *

- testDetails: Phase I study CXR1002-001: plasma pharmacokinetics (LC-MS/MS)
- Type: in vivo, human
- appliedConditions: human, plasma, oral, 100 mg, Patient 007 Dose 100 mg; 4 hr; read-out: Concentration
quantity: concentration at 4 hr (µM)

> print(dat)
                    compoundstructurestring  observed
1  O=C(O)C(F)(F)C(F)(F)C(F)(F)C(F)(F)C(F)(F)C(F)(F)C(F)(F)F      19.3

* * *

- testDetails: Phase I study CXR1002-001: plasma pharmacokinetics (LC-MS/MS)
- Type: in vivo, human
- appliedConditions: human, plasma, po, 1000 mg, Patient 042, 1000 mg weekly oral dose, Time 507 hr; read-out: Concentration (plasma level)
quantity: concentration at 507 hr (µM)

> print(dat)
                    compoundstructurestring  unittag  observed
1  O=C(O)C(F)(F)C(F)(F)C(F)(F)C(F)(F)C(F)(F)C(F)(F)C(F)(F)F       µM       952

* * *

- testDetails: Phase I study CXR1002-001: plasma pharmacokinetics (LC-MS/MS)
- Type: in vivo, human
- appliedConditions: human, plasma, oral, 450 mg, Patient 016 Dose 450 mg; 507 hr; read-out: Concentration
quantity: concentration at 507 h (µM)

> print(dat)
                    compoundstructurestring  observed
1  O=C(O)C(F)(F)C(F)(F)C(F)(F)C(F)(F)C(F)(F)C(F)(F)C(F)(F)F       721

* * *

- testDetails: Phase I study CXR1002-001: plasma pharmacokinetics (LC-MS/MS)
- Assay type: in vivo, human
- appliedConditions: human, plasma, po, 1200 mg, Patient 037, 1200 mg weekly oral dose, Time 339 hr; read-out: Concentration (plasma level)
quantity: concentration at 339 h (µM)

> print(dat)
                    compoundstructurestring  observed
1  O=C(O)C(F)(F)C(F)(F)C(F)(F)C(F)(F)C(F)(F)C(F)(F)C(F)(F)F      1040

* * *

- testDetails: Phase I study CXR1002-001: plasma pharmacokinetics (LC-MS/MS)
- Type: in vivo, human
- appliedConditions: human, plasma, oral, 450 mg, Patient 016 Dose 450 mg; 170 hr; read-out: Concentration
quantity: concentration at 170 h (µM)

> print(dat)
                                   compound  observed
1  O=C(O)C(F)(F)C(F)(F)C(F)(F)C(F)(F)C(F)(F)C(F)(F)C(F)(F)F [CXR1002]       328

* * *

- testDetails: Phase I study CXR1002-001: plasma pharmacokinetics (LC-MS/MS)
- Assay type: in vivo, human
- appliedConditions: human, plasma, oral, 50 mg, Patient 003 Dose 50 mg; 360 hr (Day 15); read-out: Concentration
quantity: concentration at 360 h

> print(dat)
                    compoundstructurestring  observed
1  O=C(O)C(F)(F)C(F)(F)C(F)(F)C(F)(F)C(F)(F)C(F)(F)C(F)(F)F    7.2 µM

* * *

- testDetails: Phase I study CXR1002-001: plasma pharmacokinetics (LC-MS/MS)
- Type: in vivo, human
- appliedConditions: human, plasma, po, 1200 mg, Patient 037, 1200 mg weekly oral dose, Time 170 hr; read-out: Concentration (plasma level)
quantity: concentration at 170 h (µM)

> print(dat)
                    compoundstructurestring  unittag  observed
1  O=C(O)C(F)(F)C(F)(F)C(F)(F)C(F)(F)C(F)(F)C(F)(F)C(F)(F)F       µM       634
